- TESTED_SYSTEM: T1, purified recombinant MHC II protein, allele DRB1*0101 (human)
- T1 construct: bought from Benaroya Research Institute; also called MHC-II DR molecule
- TEST: MHC II competition binding assay
MEASUREMENT_TYPE: pIC50
# pIC50: negative log10 of molar concentration; output just the value

# input // Input: GVHRQWYMHMSKYNVKVGD (synthetic mutated peptide of the lysostaphin catalytic domain; also called L83M) [cluster 3 peptide with Leu83Met] . Output its pIC50 only.
# output 4.49
